assay: Noncompetitive inhibition of Clostridium welchii neuraminidase by Dixon plot; parameters: species or system Clostridium perfringens
propertyName: log10 Ki (log10 of the value in µM)

[
  {
    "molecule": "CC(C)(O)CCc1c(O)cc(O)c2c1O[C@H](c1cc3c(cc1O)OC(C)(C)C=C3)CC2=O",
    "readoutNumber": -0.72
  },
  {
    "molecule": "CC(C)=CCc1c(O)cc2c(c1O)C(=O)C[C@@H](c1cc3c(cc1O)OC(C)(C)C=C3)O2",
    "readoutNumber": 0.30
  },
  {
    "molecule": "CC(C)=CCc1cc([C@@H]2CC(=O)c3c(cc(O)c(CC=C(C)C)c3O)O2)c(O)cc1O",
    "readoutNumber": 0.85
  },
  {
    "molecule": "O=c1cc(-c2ccc(O)cc2O)oc2cc(O)cc(O)c12",
    "readoutNumber": 0.29
  },
  {
    "molecule": "CC(C)=CCc1c(-c2ccc(O)cc2O)oc2cc3c(c(O)c2c1=O)C=CC(C)(C)O3",
    "readoutNumber": 1.03
  },
  {
    "molecule": "CC(C)=CC1Oc2cc(O)ccc2-c2oc3cc4c(c(O)c3c(=O)c21)C=CC(C)(C)O4 (configuration not stated)",
    "readoutNumber": 1.65
  },
  {
    "molecule": "O=C1C[C@@H](c2ccc(O)cc2O)Oc2cc(O)cc(O)c21",
    "readoutNumber": 0.86
  }
]
